Tested on: DMS 114 small cell lung
Test: NCI tumour cell line growth inhibition, 48 h
Field: TGI. Provide a value for each of the compounds that follow.

Illustrative cases are given below, each with its answer.
CC(=O)C(CN(C(C)C)C(C)C)C(c1ccccc1)c1c(O)c2ccccc2oc1=O (stereo not given) : > 100 µM
COc1ccc(NC(=O)c2cc(OC)cc(OC)c2)cc1 : > 100 µM
CC(=O)OC(C)C(=O)C1c2cccc(O)c2C(=O)c2c(O)cc(C)cc21 (stereo not given) : 0.497 µM
C/C(CCn1[nH]c(=O)ccc1=O)=N\O : > 100 µM

Then there is this compound:
Data point: O=C1NC2(CCCCC2)C2CCCCC(O)C12 (stereo not given) ; TGI = > 100 µM

// provenance: PubChem BioAssay (NCI)
